From: paper PMC10975434

# System name: UGT2B7 (Homo sapiens, UniProt P16662, Y268H)
# Sequence (P16662 24-529 Y268H): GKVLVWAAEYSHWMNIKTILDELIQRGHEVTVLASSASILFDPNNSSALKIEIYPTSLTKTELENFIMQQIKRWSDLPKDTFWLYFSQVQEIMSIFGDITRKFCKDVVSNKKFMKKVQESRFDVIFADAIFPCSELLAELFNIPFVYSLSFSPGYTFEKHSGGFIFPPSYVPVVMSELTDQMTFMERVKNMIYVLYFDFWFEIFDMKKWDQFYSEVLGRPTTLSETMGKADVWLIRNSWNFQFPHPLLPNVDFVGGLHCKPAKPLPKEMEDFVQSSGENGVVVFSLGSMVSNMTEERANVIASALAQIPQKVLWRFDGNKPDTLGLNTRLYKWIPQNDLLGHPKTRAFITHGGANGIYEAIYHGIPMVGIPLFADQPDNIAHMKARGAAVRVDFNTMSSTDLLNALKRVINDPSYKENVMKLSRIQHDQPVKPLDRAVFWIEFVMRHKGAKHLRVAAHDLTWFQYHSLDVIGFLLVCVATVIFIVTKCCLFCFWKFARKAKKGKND
# Method summary: in vitro
# Condition: microsomes of HEK293 cells overexpressing recombinant UGT2B7, probe morphine […] (morphine-6-glucuronide formation)
The following compounds are shown together with reported inhibition at 100 µM values.
Property label: inhibition at 100 µM

compound=CCCCCc1cc(O)c2c(c1)OC(C)(C)c1ccc(C)cc1-2 property_label="inhibition at 100 µM" result=33%
compound="C=C(C)[C@@H]1CCC(C)=C[C@H]1c1c(O)cc(CCCCC)cc1O [CBD, cannabidiol, reference compound]" property_label="inhibition at 100 µM" result=98%

----------
# Method summary: Estimated unbound maximum hepatic inlet concentration used for the static model
# Condition: read-out: Cmax,hepatic inlet,u; THC dose 130 mg, Oral; estimated from Cmax of Bansal et al., 2022 [56]
The following compounds are shown together with reported Cmax values.
Property label: Cmax

compound="CCCCCc1cc(O)c2c(c1)OC(C)(C)[C@@H]1CCC(C(=O)O)=C[C@@H]21 [11-COOH-THC]" result="1.22 µM"
compound="CCCCCc1cc(O)c2c(c1)OC(C)(C)[C@@H]1CCC(C)=C[C@@H]21 [THC, Δ^9-tetrahydrocannabinol, reference compound]" result="0.2 µM"
